Quick reference for pEC50 among some compounds
Target: Nuclear receptor ROR-gamma (Homo sapiens, UniProt P51449)
Sequence (P51449 whole entry, the tested form may be a part): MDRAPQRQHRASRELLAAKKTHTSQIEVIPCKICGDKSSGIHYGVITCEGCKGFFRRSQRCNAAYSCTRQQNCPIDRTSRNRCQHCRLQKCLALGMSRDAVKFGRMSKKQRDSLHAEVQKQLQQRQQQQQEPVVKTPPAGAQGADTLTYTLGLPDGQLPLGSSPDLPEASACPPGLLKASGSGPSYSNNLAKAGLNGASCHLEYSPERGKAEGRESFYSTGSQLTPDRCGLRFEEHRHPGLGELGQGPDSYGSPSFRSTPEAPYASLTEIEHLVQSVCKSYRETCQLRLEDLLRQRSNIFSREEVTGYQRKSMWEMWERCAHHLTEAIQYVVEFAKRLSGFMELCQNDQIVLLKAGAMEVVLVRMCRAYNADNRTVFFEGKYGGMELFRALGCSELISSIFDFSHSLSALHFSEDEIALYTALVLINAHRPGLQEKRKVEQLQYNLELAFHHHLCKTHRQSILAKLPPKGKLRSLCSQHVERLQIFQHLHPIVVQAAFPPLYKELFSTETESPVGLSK
Assay: Agonist activity at human RORgammat LBD (265 to 507 residues) expressed in Escherichia coli BL21(DE3) cells incubated for 1 hr FRET assay
pEC50: −log10 of the molar value.
readout-kind: pEC50

In [3]: df
Out[3]:
                                   compound  measured
0  CCS(=O)(=O)c1ccc(CNC(=O)c2ccc3c(c2)c2cc(CC4CC4)ccc2n3CCF)cc1      7.80
1  CCn1c2ccc(CC(C)(C)F)cc2c2cc(C(=O)NCc3ccc(S(=O)(=O)CC)cc3)ccc21      7.99
2  CCn1c2ccc(CC3CC3)cc2c2cc(C(=O)NC(CO)c3ccc(S(=O)(=O)CC)cc3)ccc21 (racemic)      7.83
3  CCn1c2ccc(OC(C)C)cc2c2cc(C(=O)NCc3ccc(S(C)(=O)=O)cc3)ccc21      7.92

The measurements presented in this section are drawn from ChEMBL document CHEMBL5346914.
